The following binders are listed with their measured % inhibition of RBD binding to hACE2 values.
biological target: SARS-CoV-2 RBD (RBD-2) (SARS-CoV-2); experiment: flow, HeLa-ACE2, mAb:RBD=4:1
Measurement type: % inhibition of RBD binding to hACE2 (%)

# Binder, Reading
measured = [
    ("L12.bP11A11 (antibody, V domains shown, human IgG1) VH: QVQLVQSGAEVKKPGASVKVSCKASGYTFTGYYMHWVRQAPGQGLEWMGWISPNSGGTNYAQKFQGWVTMTRDTSVSTAYMELSRLRFDDTAVYYCATESWVYGSGSYSSGAFDIWGQGTMVTVSS VL: QSVLTQPPSASGSPGQSVTISCTGTSSDVGGYDYVSWYQQHPGKAPKLMIYEVSKRPSGVPDRFSGSKSGNTASLTVPGLQAEDEADYYCTSYAGSNNFVFGGGTKLIVL", 53.9),
    ("L12.bP12H09 (antibody, V domains shown, human IgG1) VH: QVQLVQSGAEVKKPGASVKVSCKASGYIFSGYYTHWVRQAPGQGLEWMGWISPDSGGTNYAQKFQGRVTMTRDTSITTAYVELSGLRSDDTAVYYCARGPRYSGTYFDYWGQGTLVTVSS VL: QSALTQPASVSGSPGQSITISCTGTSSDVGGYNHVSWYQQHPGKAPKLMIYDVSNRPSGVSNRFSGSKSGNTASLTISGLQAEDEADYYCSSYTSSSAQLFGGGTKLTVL", 54.7),
    ("L12.cP07E10 (antibody, V domains shown, human IgG1) VH: EVQLVESGGGLIQPGGSLRLSCAASGFTVSSNYMSWVRQAPGKGLEWVSVIYSGGSTYYADSVKGRFTISRDNSKNTLYLQMNSLRAEDTAVYYCARDPYGYSSIWDGQGGHWGQGTLVTVSS VL: DVVMTQSPSSLSASVGDRVTITCQASQDISNYLNWYQQKPGKAPKLLIYDASNFATGVPSRFSGTGSGTDFTFTISSLQPEDIATYYCQQYDNLPITFGQGTRLEIK", 99.1),
]
